assay: Lipid peroxidation in linoleic acid system, FTC method; conditions: 10 mM compound, 500 nm, Day 5
PARAMETER_MEASURED: Absorbance Day 5
No unit in the answer, only the number.

Please review the entries below; each comes with its answer.
>>> recorded_measurement("COc1cc(/C=N/NC(=O)c2ccc(O)cc2O)ccc1O [3r]")
0.86
>>> recorded_measurement("Cc1cc(C(C)(C)C)c(O)c(C(C)(C)C)c1 [BHT, butylated hydroxytoluene, reference compound]")
0.81
>>> recorded_measurement("COc1ccc2[nH]cc(/C=N/NC(=O)Cc3c[nH]c4ccccc34)c2c1 [3n]")
0.92
>>> recorded_measurement("Cc1ccc(S(=O)(=O)N/N=C/c2cn(Cc3ccccc3)c3ccccc23)cc1 [5g]")
0.88

Task: Given COc1ccc(C(=O)N/N=C/C2CCN(Cc3ccccc3)CC2)cc1 [3d] , state its recorded Absorbance Day 5.
Result: 0.84

* * *

system: SH-SY5Y cells; experiment: MTT cytotoxicity, SH-SY5Y; assay type: cell-based, human; settings: Homo sapiens, SH-SY5Y; MTT, 72 h exposure; read-out: SH-SY5Y IC50
PARAMETER_MEASURED: IC50 (µM)
Write the number in µM without appending the unit.

Example entries and their recorded answers appear below.
>>> recorded_measurement("COc1cc(/C=N/NC(=O)Cc2c[nH]c3ccccc23)ccc1O [3q]")
141
>>> recorded_measurement("O=C(N/N=C/c1ccc(O)cc1)C1CCN(Cc2ccccc2)C1 (stereo not shown) [3e]")
170

Let us move to another entry and its IC50.
Task: Given the entry Cn1cc(/C=N/NC(=O)CNC(=O)OC(C)(C)C)c2ccccc21 [3l] , what IC50 was observed with SH-SY5Y cells?
Result: 107
